Provenance of the data: patent US20160311887A1

- test_system: T1, activated Protein C (APC) (human, UniProt P04070 43-197; P04070 212-461)
- T1 construct: also called human plasma APC
- T1 sequence (P04070 43-197, chain 1 of 2): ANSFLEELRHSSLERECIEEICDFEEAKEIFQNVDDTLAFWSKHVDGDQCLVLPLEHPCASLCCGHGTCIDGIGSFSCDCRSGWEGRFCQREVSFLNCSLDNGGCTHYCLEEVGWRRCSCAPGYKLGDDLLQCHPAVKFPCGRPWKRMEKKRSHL
- T1 sequence (P04070 212-461, chain 2 of 2): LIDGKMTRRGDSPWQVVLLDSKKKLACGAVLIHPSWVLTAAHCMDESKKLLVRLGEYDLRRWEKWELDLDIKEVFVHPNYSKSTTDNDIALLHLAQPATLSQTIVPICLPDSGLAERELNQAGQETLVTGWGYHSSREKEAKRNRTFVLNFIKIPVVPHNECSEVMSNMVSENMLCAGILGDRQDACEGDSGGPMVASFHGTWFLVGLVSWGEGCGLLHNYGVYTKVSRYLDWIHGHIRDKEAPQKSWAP
- experiment_notes: pseudo-first-order inhibition kinetics, residual chromogenic activity
value_type: second-order rate constant of inhibition (M⁻¹ s⁻¹)
# value in M⁻¹ s⁻¹; strip the unit string

I have this binder here, FL α1AT Pitts C232S P1′K (other, E. coli, SUMO tag removed; also called P1′K α1AT Pitts; P1′.F9) SDPQGDAAQKTDTSHHDQDHPTFNKITPNLAEFAFSLYRQLAHQSNSTNIFFSPVSIATAFAMLSLGTKADTHDEILEGLNFNLTEIPEAQIHEGFQELLRTLNQPDSQLQLTTGNGLFLSEGLKLVDKFLEDVKKLYHSEAFTVNFGDTEEAKKQINDYVEKGTQGKIVDLVKELDRDTVFALVNYIFFKGKWERPFEVKDTEEEDFHVDQVTTVKVPMMKRLGMFNIQHSKKLSSWVLLMKYLGNATAIFFLPDEGKLQHLENELTHDIITKFLENEDRRSASLHLPKLSITGTYDLKSVLGQLGITKVFSNGADLSGVTEEAPLKLSKAVHKAVLTIDEKGTEAAGAMFLEAIPRKIPPEVKFNKPFVFLMIEQNTKSPLFMGKVVNPTQK , and I need its recorded second-order rate constant of inhibition.
95700
